test system: wild type L. donovani AG83 promastigotes; assay: DNA fragmentation assay (cell death detection ELISA), wild type; format: cell-based, Leishmania donovani; conditions: 20 µM, 6 h
measurementKind: fragmentation of DNA (%)
The answer is to be given in %; state only the numeric part.

Worked set:
{"compound": "c1ccc2c(Cc3c[nH]c4ccccc34)c[nH]c2c1 [DIM, 3, 3′-diindolyl methane, reference compound]", "fragmentation of DNA / %": 73}
{"compound": "COc1ccc2[nH]cc(Cc3c[nH]c4ccc(OC)cc34)c2c1", "fragmentation of DNA / %": 49}
{"compound": "c1ccc(-c2[nH]c3ccccc3c2Cc2c(-c3ccccc3)[nH]c3ccccc23)cc1", "fragmentation of DNA / %": 79}

Consider now this further compound.
Recorded result, `Cc1[nH]c2ccccc2c1Cc1c(C)[nH]c2ccccc12` , fragmentation of DNA: 60

Where these numbers come from: paper PMC3236199
